TARGET OF ASSAY: Human M4 mAChR (Homo sapiens)
Construct: host or cells: HEK293 (Sor-L9 HEK293 human/M4/GloSensor Cell Clone Number 40)
Sequence (P08173 1-479): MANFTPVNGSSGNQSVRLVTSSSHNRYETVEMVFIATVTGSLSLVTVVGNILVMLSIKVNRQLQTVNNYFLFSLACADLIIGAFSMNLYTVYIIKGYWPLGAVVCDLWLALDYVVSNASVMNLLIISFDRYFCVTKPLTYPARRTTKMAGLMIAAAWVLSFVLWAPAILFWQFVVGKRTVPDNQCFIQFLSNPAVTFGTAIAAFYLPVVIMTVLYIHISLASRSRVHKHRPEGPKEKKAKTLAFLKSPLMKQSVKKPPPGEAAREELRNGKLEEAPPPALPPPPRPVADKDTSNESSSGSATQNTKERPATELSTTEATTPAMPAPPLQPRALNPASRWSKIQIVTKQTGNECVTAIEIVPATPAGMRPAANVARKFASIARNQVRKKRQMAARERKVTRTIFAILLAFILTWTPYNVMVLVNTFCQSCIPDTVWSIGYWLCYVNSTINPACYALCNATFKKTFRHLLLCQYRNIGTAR
PROCEDURE SUMMARY: Muscarinic hM4 Agonist GloSensor cAMP Assay
Type: cell-based
ASSAY SETUP: enantiomers reported in footnotes to Table 1; number of determinations in parentheses; read-out: M4 EC50
pEC50: −log10 of the molar value.
MEASURED PARAMETER: pEC50

Past entries and their recorded results:
CCOC(=O)N1CC2(CCC(N3CCN(c4ncccc4-c4cnsn4)CC3)C2)C1 (single isomer, unassigned) [enantiomer of Example 34] | 6.46
CCOC(=O)N1CCC2(CC(N3CCN(c4ncccc4-c4ccc(C#N)cn4)CC3)C2)C1 (single isomer, unassigned) [enantiomer of Example 23] | < 5.00
CCOC(=O)N1CC2(CCC(N3CCN(c4nccnc4OC)CC3)C2)C1 (single isomer, unassigned) [enantiomer of Example 27] | < 5.00

Then there is this compound:
Report measured pEC50 on Human M4 mAChR (Homo sapiens); entry: CCOC(=O)N1CC2(CCC(N3CCN(c4ncccc4C)CC3)C2)C1 (single isomer, unassigned) [enantiomer of Example 21]
< 6.62

###

TARGET OF ASSAY: Human M4 mAChR (Homo sapiens, UniProt P08173)
Construct: host or cells: HEK293 (Sor-L9 HEK293 human/M4/GloSensor Cell Clone Number 40)
PROCEDURE SUMMARY: Muscarinic hM4 Agonist GloSensor cAMP Assay
Type: cell-based
ASSAY SETUP: HEK293 human/M4/GloSensor cells, EC80 isoproterenol; geometric mean, number of determinations in parentheses; read-out: EC50
Can you tell me EC50 for the items I'm about to list?
Numbers only, in nM.

Past entries and their recorded results:
CCOC(=O)N1CC2(CCC(N3CCN(c4ncccc4N4CCC(c5ccnn5C)CC4)CC3)C2)C1 (stereo not drawn) | 1.78
CCOC(=O)N1CC2(CCC(N3CCN(c4ncccc4-c4cncnc4)CC3)C2)C1 (stereo not drawn) | 1.2
CCOC(=O)N1CC2(CC(N3CCN(c4ncccc4-c4cc(C)ns4)CC3)C2)C1 | 27.8
CCOC(=O)N1CC2(CCC(N3CCN(c4ncccc4-c4ccc5nccn5c4)CC3)C2)C1 (stereo not drawn) | 11.7
CCOC(=O)N1CC2(CCC(N3CCN(c4ncccc4-c4nccnc4C)CC3)C2)C1 (stereo not drawn) | 17.3

State the recorded EC50 for every item in the following list.
1. CCOC(=O)N1CC2(CC[C@@H](N3CCN(c4ncccc4N4CC5(COC5)C4)CC3)C2)C1
2. CCOC(=O)N1CC2(CCC(N3CCN(c4cccnc4OCC(F)(F)F)CC3)C2)C1 (stereo not drawn)
3. CCOC(=O)N1CC2(CCC(N3CCN(c4ncccc4-c4ccc(NC(C)=O)cc4)CC3)C2)C1 (stereo not drawn)
4. CCOC(=O)N1CC2(CC(N3CCN(c4ncccc4-c4ccc(C#N)cn4)CC3)C2)C1
5. CCOC(=O)N1CC2(CC[C@@H](N3CCN(c4ncccc4-c4cnccn4)CC3)C2)C1
6. CCOC(=O)N1CC2(CC[C@@H](N3CCN(c4ncccc4-c4nncs4)CC3)C2)C1
7. CCOC(=O)N1CC2(CCC(N3CCN(c4ncccc4-c4ccc(C#N)cc4)CC3)C2)C1 (stereo not drawn)

1: 1; 2: 5.13; 3: 0.568; 4: 53.8; 5: 2.23; 6: 1.6; 7: 1.75

###

TARGET OF ASSAY: Human M4 mAChR (Homo sapiens)
Construct: host or cells: HEK293 (Sor-L9 HEK293 human/M4/GloSensor Cell Clone Number 40)
PROCEDURE SUMMARY: Muscarinic hM4 Agonist GloSensor cAMP Assay
Assay type: cell-based
ASSAY SETUP: HEK293 human/M4/GloSensor cells, EC80 isoproterenol; geometric mean, number of determinations in parentheses; read-out: EC50
# note: boundary value 4 nM maps to rule not met; EC50 below it maps to rule met

Reference set, count: 2
CCOC(=O)N1CC2(CC[C@@H](N3CCN(c4ncccc4-c4ccncn4)CC3)C2)C1 | rule met
CCOC(=O)N1CC2(CCC(N3CCN(c4ncccc4-c4cnc(OC)cn4)CC3)C2)C1 (single isomer, unassigned) [Example 3] | rule met

Here is the next item to consider.
Take the compound CCOC(=O)N1CC2(CC[C@@H](N3CCN(c4ncccc4-c4cnc(C)nc4)CC3)C2)C1 and say whether its EC50 is less than 4 nM.
rule met

###

Can you tell me EC50 for the items I'm about to list?
TARGET OF ASSAY: Human M4 mAChR (Homo sapiens)
Construct: host or cells: HEK293 (Sor-L9 HEK293 human/M4/GloSensor Cell Clone Number 40)
PROCEDURE SUMMARY: Muscarinic hM4 Agonist GloSensor cAMP Assay
Format: cell-based
ASSAY SETUP: HEK293 human/M4/GloSensor cells, EC80 isoproterenol; geometric mean, number of determinations in parentheses; read-out: EC50

Past entries and their recorded results:
CCOC(=O)N1CC2(CCC(N3CCN(c4ncccc4C4CC4)CC3)C2)C1 (single isomer, unassigned) | < 0.074 nM
CCOC(=O)N1CC2(CCC(N3CCN(c4ncccc4-c4cnc(OC)cn4)CC3)C2)C1 (single isomer, unassigned) [Example 2] | > 10000 nM

Then there is this compound:
Using known records, supply EC50 for CCOCCn1cc(-c2cccnc2N2CCN([C@@H]3CCC4(C3)CN(C(=O)OCC)C4)CC2)cn1
< 0.389 nM

###

TARGET OF ASSAY: Human M4 mAChR (Homo sapiens)
Construct: host or cells: HEK293 (Sor-L9 HEK293 human/M4/GloSensor Cell Clone Number 40)
PROCEDURE SUMMARY: Muscarinic hM4 Agonist GloSensor cAMP Assay
Type: cell-based
ASSAY SETUP: HEK293 human/M4/GloSensor cells, EC80 isoproterenol; geometric mean, number of determinations in parentheses; read-out: EC50
Can you tell me EC50 for the items I'm about to list?
One number for each entry, in nM.

Past entries and their recorded results:
CCOC(=O)N1CC2(CC[C@@H](N3CCN(c4ncccc4-c4cscn4)CC3)C2)C1 [Example 4] | 2.17
CCOC(=O)N1CC2(CCC(N3CCN(c4ncccc4-c4cnc(O)cn4)CC3)C2)C1 (stereo not drawn) [Example 48] | 8.49
CCOC(=O)N1CC2(CCC(N3CCN(c4ncccc4N4CCC(F)(F)C4)CC3)C2)C1 (stereo not drawn) [Example 29] | 4.45
CCOC(=O)N1CC2(CC[C@@H](N3CCN(c4ncccc4-c4nnc(C)o4)CC3)C2)C1 [Example 51] | 1.99
CCOC(=O)N1CCC2(CC(N3CCN(c4ncccc4-c4ccc(C#N)cn4)CC3)C2)C1 (single isomer, unassigned) [Example 23] | 143

Report measured EC50 on Human M4 mAChR (Homo sapiens); entry: CCOC(=O)N1CC2(CC[C@H](N3CCN(c4ncccc4OC)CC3)C2)C1 [Example 7]
425

The measured values listed here are drawn from patent US12398119B2.
